tested on: 186277-243-T-J2-PDC complex spheroid viability; assay: Anticancer human tumor 186277-243-T-J2-PDC patient-derived colon adenocarcinoma cell line growth inhibition; settings: second compound 0.316 µM; first compound 0.949 µM; stronger effect = lower value

{"compound": "CCN(c1cc(-c2ccc(CN3CCOCC3)cc2)cc(C(=O)NCc2c(C)cc(C)[nH]c2=O)c1C)C1CCOCC1 + NC1CC1c1ccc(-c2cccc(O)c2)cc1", "viability, T/C / %": 120}
{"compound": "COc1cc(C2c3cc4c(cc3C(OC3OC5COC(C)OC5C(O)C3O)C3COC(=O)C23)OCO4)cc(OC)c1O (stereo unspecified) + NC1CCC(NC2CC2c2ccccc2)CC1", "viability, T/C / %": 72.9}
{"compound": "NS(=O)(=O)OCC1CC(n2ccc3c(NC4CCc5ccccc54)ncnc32)CC1O (stereo unspecified) + NC1CC1c1ccc(-c2cccc(O)c2)cc1", "viability, T/C / %": 11.7}
{"compound": "COc1cc(C2c3cc4c(cc3C(OC3OC5COC(C)OC5C(O)C3O)C3COC(=O)C23)OCO4)cc(OC)c1O (stereo unspecified) + NC1CC1c1ccc(-c2cccc(O)c2)cc1", "viability, T/C / %": 36.6}
{"compound": "CCN(c1cc(-c2ccc(CN3CCOCC3)cc2)cc(C(=O)NCc2c(C)cc(C)[nH]c2=O)c1C)C1CCOCC1 + NC1CCC(NC2CC2c2ccccc2)CC1", "viability, T/C / %": 113}
{"compound": "O=C(C=Cc1cccc(S(=O)(=O)Nc2ccccc2)c1)NO + NC1CC1c1ccc(-c2cccc(O)c2)cc1", "viability, T/C / %": 3.14}

###

System: 186277-243-T-J2-PDC complex spheroid viability
Assay: Anticancer human tumor 186277-243-T-J2-PDC cell line growth inhibition;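 also: 7 day exposure to compounds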
Details: curve of first compound; second compound 10 µM
Text: Multicellular complex tumor spheroid response to LSD1 Inhibitor Iadademstat in combination with a variety of drugs and investigational agents in selected tumor cell lines The current study was undertaken to assess response to LSD1 inhibitors in combination with standard-of-care drugs and investigational agents in solid tumor complex spheroid models as well as in the K-562 leukemia. […] Compounds. […] If the clinical Cmax for an agent had not been determined, the highest concentration tested was 10 microM. […]
// values below are reported IC50

{"compound": "CCN(c1cc(-c2ccc(CN3CCOCC3)cc2)cc(C(=O)NCc2c(C)cc(C)[nH]c2=O)c1C)C1CCOCC1 + NC1CCC(NC2CC2c2ccccc2)CC1", "limit sign": ">", "IC50, nM": 3000}
{"compound": "CC1(C)CCC(CN2CCN(c3ccc(C(=O)NS(=O)(=O)c4ccc(NCC5CCOCC5)c([N+](=O)[O-])c4)c(Oc4cnc5[nH]ccc5c4)c3)CC2)=C(c2ccc(Cl)cc2)C1 + NC1CCC(NC2CC2c2ccccc2)CC1", "limit sign": "=", "IC50, nM": 4570}
{"compound": "CCc1c2c(nc3ccc(O)cc13)-c1cc3c(c(=O)n1C2)COC(=O)[C@]3(O)CC + NC1CC1c1ccc(-c2cccc(O)c2)cc1", "limit sign": "<", "IC50, nM": 0.949}
{"compound": "Nc1ccccc1NC(=O)c1ccc(CNC(=O)OCc2cccnc2)cc1 + NC1CC1c1ccc(-c2cccc(O)c2)cc1", "limit sign": "=", "IC50, nM": 514}
{"compound": "NS(=O)(=O)OCC1CC(n2ccc3c(NC4CCc5ccccc54)ncnc32)CC1O (centres undefined) + NC1CC1c1ccc(-c2cccc(O)c2)cc1", "limit sign": "=", "IC50, nM": 265}
{"compound": "COc1ccc([C@@H](O)c2cc(-c3ncnc4cc(N5CCOCC5)ccc34)c(F)cc2Cl)nn1 + NC1CC1c1ccc(-c2cccc(O)c2)cc1", "limit sign": "=", "IC50, nM": 3730}
{"compound": "O=C(C=Cn1cnc(-c2cc(C(F)(F)F)cc(C(F)(F)F)c2)n1)NNc1cnccn1 + NC1CCC(NC2CC2c2ccccc2)CC1", "limit sign": "=", "IC50, nM": 16.8}
{"compound": "Nc1ncn(C2CC(O)C(CO)O2)c(=O)n1 (centres undefined) + NC1CC1c1ccc(-c2cccc(O)c2)cc1", "limit sign": ">", "IC50, nM": 1000}
{"compound": "COc1cc(C2c3cc4c(cc3C(OC3OC5COC(C)OC5C(O)C3O)C3COC(=O)C23)OCO4)cc(OC)c1O (centres undefined) + NC1CCC(NC2CC2c2ccccc2)CC1", "limit sign": ">", "IC50, nM": 3000}

src = PubChem BioAssay AID1918933
